Tested on: A549
Test Method Notes: Inhibition of cell viability (MTS), A549 (negative control line)
Type: cell-based
Condition Label: Homo sapiens, A549, 96 h, A549 cells (negative control), 96 hours incubation
Structures can show the parent of a compound that is named as a salt.
Kindly supply the reported EC50 values for the records listed here.

Molecule	EC50
COc1ccc(-c2ccc3nnc(C(F)(F)c4ccc5nc(NC(=O)C6CC6)cn5n4)n3c2)cn1	> 50 µM
CS(=O)(=O)c1ccc(-c2ccc3nnn(Cc4ccc5nc(NC(=O)C6CC6)cn5n4)c3c2)cc1	> 19.5 µM
O=C(Nc1cn2nc(Sc3nnc4ccc(-c5ccc(N6CCNCC6)cc5)cn34)ccc2n1)C1CC1	> 50 µM
CC(c1ccc2nc(NC(=O)C3CC3)cn2n1)c1nnc2ccc(-c3ccc(C#N)cc3)cn12 (centres unmarked)	> 50 µM
C[C@H](c1ccc2nc(NC(=O)C3CC3)cn2n1)c1nnc2ccc(-c3cnn(C)c3)cn12	> 50 µM
O=C(Nc1cn2nc(Sc3nnc4ccccn34)ccc2n1)C1CC1 [3 (HCl Salt)]	8 to 25 µM

Could you tell me EC50 for each of these molecules? They are listed below.
1. O=C(Nc1cn2nc(Sc3nnc4ccc(Br)cn34)ccc2n1)C1CC1
2. CC(c1ccc2nc(NC(=O)C3CC3)cn2n1)c1nnc2ccc(-c3ccc(C#N)c(F)c3)cn12 (centres unmarked)

### Response
1: > 50 µM; 2: > 50 µM
